Test system: OVCAR4 cells
experimentalDetails: On-cell western
Format: cell-based, human
measurementLabel: binding to OVCAR4 cells

{"molecule": "ZY0EOB-F05: anti-B7-H4 antibody clone, VH SEQ ID NO: 35, VL SEQ ID NO: 36 (antibody, V domains shown) VH: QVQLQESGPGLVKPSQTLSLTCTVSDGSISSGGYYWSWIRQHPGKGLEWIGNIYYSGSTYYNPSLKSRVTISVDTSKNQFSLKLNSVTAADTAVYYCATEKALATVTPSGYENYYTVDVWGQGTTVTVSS VL: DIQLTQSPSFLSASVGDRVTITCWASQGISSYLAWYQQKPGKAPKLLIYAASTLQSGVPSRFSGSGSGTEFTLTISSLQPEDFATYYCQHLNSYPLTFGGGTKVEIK", "value": "bind"}
